experiment: qHTS RealTime-Glo MT Cell Viability Assay in HEK293 cells - 32 hour (AID 1224868); conditions: RealTime-Glo luminescence; series mostly up to 76.8 µM; further: nearly all actives have a fitted effect of over 50% in size
Results filed as inconclusive are left out. Active and inactive are the calls of the source. The call rests on the fitted dose curve; in most records, active means well fitted cell-killing curve with a large enough effect in the repeat runs; inconclusive means weak or mixed curves, or effect the other way; inactive means flat fitted curve, though single readings scatter.
Classes used: active, inactive

Nc1cccc(S(=O)(=O)c2cccc(N)c2)c1 :: inactive
NCC(=O)CCC(=O)O :: inactive
CCCCCCCCCCCCCCCCOS(=O)(=O)O :: inactive
CC(=O)c1cccc([N+](=O)[O-])c1 :: inactive
COc1cc(C(=O)OCCCN2CCCN(CCCOC(=O)c3cc(OC)c(OC)c(OC)c3)CC2)cc(OC)c1OC :: active
Cc1cccc(C)c1NC(=O)CN(CC(=O)O)CC(=O)O :: inactive
OC(C#CCN1CCCC1)(c1ccccc1)c1ccccc1 :: inactive
Nc1cccc([N+](=O)[O-])c1 :: inactive
CCCCCCCCCCCc1ccccc1 :: inactive
Nc1ncn([C@H]2C[C@H](O)[C@@H](CO)O2)c(=O)n1 :: inactive
CCCCCCCC#N :: inactive
OC(CN1CCC(Cc2ccc(F)cc2)CC1)c1ccc(Cl)cc1 (stereo unspecified) :: active
CCCCCCOC(=O)NC(=N)c1ccc(NCc2nc3cc(C(=O)N(CCC(=O)OCC)c4ccccn4)ccc3n2C)cc1 :: active
CCOCC(O)COc1ccc(NC(=O)CC[S+](C)C)cc1 (stereo unspecified) :: inactive
CCOC(=O)C(=O)CCc1ccccc1 :: inactive
C=C(C)C(=O)OCCOCC :: inactive
COc1cc2nc(N3CCN(C(=O)C4COc5ccccc5O4)CC3)nc(N)c2cc1OC (stereo unspecified) :: active
CC1=CC[C@H](C(C)C)C=C1 :: inactive
CNCCCCOc1ccccc1Cc1ccccc1 :: active
COc1ccc(-c2nc3ccc(C4=NNC(=O)CC4C)cc3[nH]2)cc1 (stereo unspecified) :: active
CCN(CC)CCNC(=O)c1cc(Br)c(N)cc1OC :: inactive
CCC(C)c1cc(C(C)(C)C)c(O)c(C(C)(C)C)c1 (stereo unspecified) :: inactive
COc1ccc2cccc(CCNC(C)=O)c2c1 :: inactive
CCN(CC)c1ccc2c(-c3ccccc3C(=O)O)c3ccc(=[N+](CC)CC)cc-3oc2c1 :: active
COCCCN1CCC(NC(=O)c2cc(Cl)c(N)c3c2OCC3)CC1 :: inactive
O=C(O)c1ccco1 :: inactive

* * *

experiment: qHTS assay to test for compound auto fluorescence at 590 nm (red) in HepG2 cells (AID 720674); details: HepG2 autofluorescence, red 540/590 nm, 1 h; series mostly up to 91.3 µM; further: on the % scale 0 is the no-effect control and ±100 the full control effect
Activity calls are given as the source filed them. Calls come from the whole dose curve; as a rule, active = well fitted curve in the direction sought with a large enough effect in the repeat runs; inconclusive = weak or mixed curves; inactive = flat fitted curve, though single readings scatter.
Property name: fluorescence, relative to Rose Bengal

Cn1c(=O)cc(Oc2ccc(F)cc2F)c2cnc(NCC(C)(C)O)nc21 :: inactive
CCC(CC)Nc1ccc(C)c(C)c1 :: inactive
Nc1cccc(S(=O)(=O)c2cccc(N)c2)c1 :: inactive
CNC(=O)CN(CCN(CCN(CC(=O)[O-])CC(=O)NC)CC(=O)[O-])CC(=O)[O-].O.[Gd+3] :: inactive
CCOC(=O)NCCOc1ccc(Oc2ccccc2)cc1 :: inactive
O=P(O)(OCc1ccccc1)OCc1ccccc1 :: inactive
C=C(C)C(=O)OCCO :: inactive
CCO[Si](CCCCl)(OCC)OCC :: inactive
CN(Cc1ccc(C(C)(C)C)cc1)Cc1cccc2ccccc12 :: inactive
O=C(O)CNCC(=O)O :: -0.419% [at 3.72 µM] (inactive)
CCC(C)c1cc(C(C)(C)C)c(O)c(C(C)(C)C)c1 (stereo not drawn) :: inactive
NCC(=O)O :: inactive
CCCCC(CC)CN1C(=O)C2C3C=CC(C3)C2C1=O (stereo not drawn) :: inactive
